Source listed as patent US11028090B2.

# assayed-system: BRD4 (BD1+BD2) bromodomain (Homo sapiens (Human))
# experiment-description: BRD4 binding inhibition (AlphaScreen, GST-BRD4 vs tetraacetylated histone H4 peptide)
# recorded-conditions: GST-BRD4 (BD1+BD2) / biotinylated acetyl-histone H4 (Lys5,8,12,16) peptide; read-out: IC50, BRD4 binding inhibition
pIC50: −log10 of the molar value.
Could you please report measured pIC50 for the items listed next?

Exam item: # lookup: pIC50 of `COc1cc2nc(NCCCCNC(=O)NC3CCCCC3)c3nnc(C)n3c2cc1C(F)(F)F`
Marked response: ≥ 7.30

Exam item: Record: `COc1cc(C)c2nc(NCCCCNC(=O)CC(C)C)c3nnc(C)n3c2c1`
Marked response: ≥ 7.30

Exam item: Entry `COCCOc1ccc2c(c1)nc(NCCCCNC(=O)N1CCOCC1)c1nnc(C)n12` please
Marked response: ≥ 7.30

Exam item: Item: `Cc1nnc2c(NCCCCNC(=O)[C@H](O)C(C)C)nc3cc4c(cc3n12)OCCO4`
Marked response: ≥ 7.30

Exam item: Repeat for the following compound: `CCCNc1cc2c(cc1OC)nc(NCCCCNC(=O)CC(C)C)c1nnc(C)n12`
Marked response: ≥ 8.00

Exam item: Now give it for `Cc1nnc2c(NCCCCNC(=O)OC(C)C)nc3cc(N4CCOCC4)ccc3n12` too.
Marked response: ≥ 7.30

Exam item: Could you do the same for `Cc1nnc2c(NCCCCNC(=O)CC(C)C)nc3cc(-c4nc5ccccc5n4C)ccc3n12` , please?
Marked response: ≥ 8.00

Exam item: Please give the result for `COc1ccc2c(nc(NCCCCNC(=O)OCC(C)C)c3nnc(C)n32)c1Cl` too.
Marked response: ≥ 7.30

Exam item: # iterate: `Cc1nnc2c(NCCCCNC(=O)c3ccccc3Cl)nc3ccc(OC(F)(F)F)cc3n12`
Marked response: ≥ 7.30

Exam item: // query: `COc1ccc2c(c1)nc(NCCCCNC(=O)Cc1cccs1)c1nnc(C)n12`
Marked response: ≥ 7.30

====

For each record, write down the corresponding IC50.
# assayed-system: BRD4 (BD1+BD2) bromodomain (Homo sapiens (Human), UniProt O60885)
# experiment-description: BRD4 binding inhibition (AlphaScreen, GST-BRD4 vs tetraacetylated histone H4 peptide)
# recorded-conditions: GST-BRD4 (BD1+BD2) vs biotinylated acetyl-histone H4 peptide, AlphaScreen; read-out: BRD4 IC50
State the answer as a number, implicitly in nM.

Exam item: # get_value(readout='IC50', item= `COc1cc2nc(NCCCCNC(=O)NC(C)C)c3nnc(C)n3c2cc1OC` )
Marked response: 63

Exam item: What about this compound? `Cc1nnc2c(NCCCCNC(=O)[C@@H](NS(C)(=O)=O)C(C)C)nc3cc(N4CCOCC4)ccc3n12`
Marked response: 26

Exam item: # iterate: `Cc1nnc2c(NCCCCNC(=O)NC(C)C)nc3cc4c(cc3n12)OCCO4`
Marked response: 34

Exam item: CCC(C)OC(=O)NCCCCNc1nc2cc(OC)ccc2n2c(C)nnc12 (stereo not shown) , same question.
Marked response: 14

Exam item: Same question, `CCc1nnc2c(NCCCCNC(=O)OC(C)C)nc3cc(OC)ccc3n12` this time
Marked response: 5

Exam item: Try this compound next: `COCCOc1ccc2c(c1)nc(NCCCCNC(=O)c1ccccc1OC)c1nnc(C)n12`
Marked response: 16

Exam item: `COCCOc1ccc2c(c1)nc(NCCCCNC(=O)NC1CCCCC1)c1nnc(C)n12` , same question.
Marked response: 17

Exam item: Further, for `COc1cc2c(cc1C)nc(NCCCCNC(=O)c1ccccc1F)c1nnc(C)n12` ?
Marked response: 77

Exam item: Continue with `COCCOc1ccc2c(c1)nc(NCCCCNC(=O)c1ccccc1Cl)c1nnc(C)n12`
Marked response: 19

Exam item: Then `COc1cc2nc(NCCCCNC(=O)c3ccccc3Cl)c3nnc(C)n3c2cc1OC` ?
Marked response: 21
